Data origin, for the record: patent US9370503B1

Method: Hypoxia-induced damage in HUVECs (MTT)
Assay type: cell-based, human
Conditions Used: human, HUVECs, 10 μg/ml, P<0.01, read-out: decrease of viability of HUVECs in hypoxic condition
Recorded Endpoint: cytotoxicity at 72 h, 10 μg/ml (%)
One number for each entry, in %.

For the compound CC(C)=CCC/C(C)=C/Cc1c([C@@H]2CC(=O)c3c(cc(O)c(CC=C(C)C)c3O)O2)ccc(O)c1O , what cytotoxicity at 72 h, 10 μg/ml is on record?
97
